# Tested target: T1, human TFR1 expressed on CHO-S cells (human, UniProt P02786 1-760)
# T1 construct: CHO-S cells transfected with a vector expressing human TFR1; also called hTFR1; CHO-S-hTFR1 cells
# T1 sequence (P02786 whole entry): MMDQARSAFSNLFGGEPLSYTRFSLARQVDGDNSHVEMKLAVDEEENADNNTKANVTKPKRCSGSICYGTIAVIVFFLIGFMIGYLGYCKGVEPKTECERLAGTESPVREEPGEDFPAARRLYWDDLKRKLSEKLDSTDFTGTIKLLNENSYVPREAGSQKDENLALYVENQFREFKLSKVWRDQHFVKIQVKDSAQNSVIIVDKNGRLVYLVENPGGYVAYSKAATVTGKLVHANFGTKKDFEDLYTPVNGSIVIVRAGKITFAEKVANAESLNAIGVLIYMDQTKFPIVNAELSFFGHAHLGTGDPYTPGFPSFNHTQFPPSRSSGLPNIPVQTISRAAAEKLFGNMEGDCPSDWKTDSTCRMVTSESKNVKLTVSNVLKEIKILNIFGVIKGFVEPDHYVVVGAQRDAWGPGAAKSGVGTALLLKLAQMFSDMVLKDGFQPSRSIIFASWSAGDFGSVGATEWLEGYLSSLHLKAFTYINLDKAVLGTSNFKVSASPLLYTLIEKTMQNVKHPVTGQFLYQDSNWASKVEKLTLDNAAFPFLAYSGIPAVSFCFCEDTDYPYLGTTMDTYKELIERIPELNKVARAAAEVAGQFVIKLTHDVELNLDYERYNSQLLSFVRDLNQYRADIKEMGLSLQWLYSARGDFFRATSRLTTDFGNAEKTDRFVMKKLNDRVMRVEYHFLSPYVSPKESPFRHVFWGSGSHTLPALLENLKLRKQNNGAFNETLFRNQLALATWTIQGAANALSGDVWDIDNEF
# Experiment: flow cytometry on CHO-S-hTFR1 cells; anti-hIgG-Fc Alexa Fluor 647 secondary
# Description: CHO-S-hTFR1 cells or CHO-S-fasTFR1 cells were transferred to a 96-well plate at a density of 10⁵ cells/well respectively. Serially diluted sample anti-TFR1 antibodies were added to the 96-well plate, and incubated at 4° C. for 30 minutes. PBS was used as a negative control (NC).
Please go through the items and note down their Percentage of Positive Cells.
Answers are plain numbers, in %.

Below: 4 binders and their reported Percentage of Positive Cells.
JR141-N (antibody, V domains shown, also called positive control; JR141 VH and VL on human IgG1 N297A) VH: EVQLVQSGAEVKKPGESLKISCKGSGYSFTNYWLGWVRQMPGKGLEWMGDIYPGGDYPTYSEKFKVQVTISADKSISTAYLQWSSLKASDTAMYYCARSGNYDEVAYWGQGTLVTVSS VL: DIVMTQTPLSLSVTPGQPASISCRSSQSLVHSNGNTYLHWYLQKPGQSPQLLIYKVSNRFSGVPDRFSGSGSGTDFTLKISRVEAEDVGVYYCSQSTHVPWTFGQGTKVEIK	45
23B8 (antibody, V domains shown, Heavy-chain antibody without light chain; also called anti-TFR1 antibody 23B8) VH: QVTLKESGGGLVKPGGSLRLSCAASGFPFSNAWMNWVRQAPGKGLEWVGHIKSKTDGGTTDYAAPVKGRFTISRDDSKNMVFLQMNSLKTEDTAVYYCTTDRAYCGGDCSHYYYHDLDVWGQGTTVTVSS	38.8
24C9 (antibody, human IgG1, V domains shown, Heavy-chain antibody without light chain; also called anti-TFR1 antibody 24C9) VH: EVQLVQSGGGVVQPGRSLRLSCAASGFTLSSYGMYWVRQAPGKGREWVAFIRFDESKKYYADSVKGRFTISRDNSKNTLYLQMNSLRAEDTAVYYCARDGEGGYCTNGVCHGLDVWGQGTTVTVSS	45.8
24A1 (antibody, human IgG1, V domains shown, Heavy-chain antibody without light chain; also called anti-TFR1 antibody 24A1) VH: EVQLVESGGGLVQPGGSLRLTCAASGFTFSSYAMSWVRQAPGKGLERVSEISGSGSSTNYADSVKGRFTISRDNSKNTLYLQMNSLRAEDTAVYYCAKDDSSGWAFNIWDQGTVVTVSS	56.4

Now, please, on to the next binder.
**Query** I would be grateful if you could share the reported Percentage of Positive Cells for 24G5 (antibody, human IgG1, V domains shown, Heavy-chain antibody without light chain; also called anti-TFR1 antibody 24G5) VH: QLQLQESGGGLVQPGGSLRLTCAASGFTFSSFAMSWVRQAPGKGLERVSEISDSGGNTYYADSVKGRFTISRDNSKNTLYLQMNSLRAEDTAVYYCAKDDSSGWAFNIWDQGTVVTVSS .
**Result** 54.3
